# Maximal Downregulation (% CD33 remaining) annotations
- assayed_target: human CD33 on primary human monocyte-derived dendritic cells (human, UniProt P20138 18-364)
- Sequence (P20138 18-364): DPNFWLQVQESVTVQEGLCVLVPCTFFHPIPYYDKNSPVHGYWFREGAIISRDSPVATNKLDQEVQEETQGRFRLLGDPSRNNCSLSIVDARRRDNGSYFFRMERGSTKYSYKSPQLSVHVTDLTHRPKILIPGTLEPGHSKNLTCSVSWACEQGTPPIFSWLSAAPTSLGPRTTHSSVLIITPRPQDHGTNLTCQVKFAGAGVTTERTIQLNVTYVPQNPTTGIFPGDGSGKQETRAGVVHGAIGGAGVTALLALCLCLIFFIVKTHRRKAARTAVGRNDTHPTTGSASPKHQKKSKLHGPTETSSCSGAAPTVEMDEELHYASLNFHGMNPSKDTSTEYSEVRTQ
- assay_comment: cell-based or functional assay
In your response, the unit should come after the numeric value.

AB-63.5 (antibody, V domains shown) VH: QVQLVQSGAEVKKPGASVKVSCKASGYTFTDYNNHWVRQAPGQGLEWIGFIYPSNGITGYAQKFQGRVTMTVDTSTSTVYMELSSLRSEDTAVYYCARSDVDYFDYWGQGTLVTVSS VL: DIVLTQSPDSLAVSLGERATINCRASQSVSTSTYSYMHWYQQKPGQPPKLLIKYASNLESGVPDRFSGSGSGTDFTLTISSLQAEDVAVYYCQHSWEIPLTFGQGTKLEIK    16.5%
AB-63.16 (antibody, V domains shown) VH: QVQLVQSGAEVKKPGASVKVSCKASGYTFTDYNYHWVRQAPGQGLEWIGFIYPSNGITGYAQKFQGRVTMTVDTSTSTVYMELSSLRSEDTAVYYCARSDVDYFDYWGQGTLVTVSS VL: DIVLTQSPDSLAVSLGERATINCRASQSVHTSTYSYMHWYQQKPGQPPKLLIKYASNLESGVPDRFSGSGSGTDFTLTISSLQAEDVAVYYCQHSWEIPLTFGQGTKLEIK    23.4%

Now for the binder whose Maximal Downregulation (% CD33 remaining) we want.
Looking for the measured Maximal Downregulation (% CD33 remaining) of AB-63.14 (antibody, V domains shown) VH: QVQLVQSGAEVKKPGSSVKVSCKASGYTFTDYNLHWVRQAPGQGLEWIGFIYPSNGITGYAQKFQGRVTMTVDTSTSTVYMELSSLRSEDTAVYYCARSDVDYFDYWGQGTLVTVSS VL: DIVLTQSPDSLAVSLGERATIDCKASQDVSTSTYSYMHWYQQKPGQPPKLLIKYASNLESGVPDRFSGSGSGTDFTLTISSLQAEDVAVYYCQHSWEIPLTFGQGTKLEIK , can you help?
25.3%
